Each item that follows carries a reported solubility at 24 h.
- Assay Comment: Aqueous solubility in PBS, pH 7.4
- Type: physicochemical
- Run Conditions: phosphate buffered saline, pH 7.4, aqueous buffer, thermodynamic from solid, pH 7.4 phosphate buffered saline, 24 hours, amorphous or crystalline material; read-out: Aqu. Solubility
Observable: solubility at 24 h

Smiles Record: C#C[C@]1(CO)O[C@@H](n2ccc3c(N)nc(Cl)nc32)C[C@@H]1OC(=O)Cc1ccc(Br)cc1
Obs Value: < 1 µg/mL
//
Smiles Record: C#C[C@]1(CO)O[C@@H](n2ccc3c(N)nc(Cl)nc32)C[C@@H]1OC(=O)OCCCc1ccccc1
Obs Value: < 1 µg/mL
//
Smiles Record: C#C[C@]1(CO)O[C@@H](n2ccc3c(N)nc(Cl)nc32)C[C@@H]1OC(=O)OCCCCCCCCC
Obs Value: < 1 µg/mL

Provenance of the data: patent US20240287124A1
